# credit: patent US8519123B2

The following compounds are shown together with reported pIC50 values.
System: mouse melanoma cancer cell line (B16)
Assay Details: In vitro cytotoxicity, MTT assay, 48 h continuous drug exposure
Type: cell-based
Condition Parameters: Mus musculus, B16 cells, 48 h exposure
pIC50: −log10 of the molar value.
Endpoint: pIC50

>>> numeric_result("COc1cc2c(cc1OCCCCN1CCN(C(=O)c3nc(-c4ccccc4)n4ccccc34)CC1)N=C[C@@H]1CCCN1C2=O [7b]")
5.57
>>> numeric_result("COc1cc2c(cc1OCCCCCN1CCN(C(=O)c3nc(-c4ccccc4)n4ccccc34)CC1)N=C[C@@H]1CCCN1C2=O [7c]")
5.73
>>> numeric_result("COc1cc2c(cc1OCCCCCCN1CCN(C(=O)c3nc(-c4ccccc4)n4ccccc34)CC1)N=C[C@@H]1CCCN1C2=O [7d]")
5.83
>>> numeric_result("C1=CC2=CN=c3ccccc3=CN2C1 [DC-81, pyrrolo[2,1-c][1,4]benzodiazepine]")
5.74
>>> numeric_result("COc1cc2c(cc1OCCCN1CCN(C(=O)c3nc(-c4ccccc4)n4ccccc34)CC1)N=C[C@@H]1CCCN1C2=O [7a]")
5.55
